Just for reference, patent US20250082633A1 is where these values come from.

# Test system: MYB mRNA
# Assay name: RT-qPCR splicing assay, MYB canonical (CJ) and alternative (AJ) junction mRNA
# Type: cell-based
# Run parameters: Homo sapiens; increase in alternative junction mRNA; A673 or K562 cells, 24 hours treatment; Table 2; read-out: MYB AJ AC50
Metric name: AC50

Give the reported AC50 for this compound. `COc1cc(-c2cc3cn(C)nc3cc2O)nc2cn(C3CCNCC3)nc12` 1000 to 10000 nM

In one line, give reported AC50 of the entry `Cn1cc2cc(-c3ccc4nn(C5CCNCC5)cc4n3)c(O)c(F)c2n1` . 100 to 1000 nM

Let me know recorded AC50 for `Cc1cc(-n2cc3cc(N4CCNCC4)ccc3n2)cc2cn(C)nc12` , thanks. > 10000 nM

Supply AC50 value. Item: `Cc1cn2nc(-c3cc(F)c4nn(CC5CCNCC5)cc4c3)cc(C)c2n1` 100 to 1000 nM

Give the value of AC50 reported for the following: `Cc1ccc2nc(-c3cc(F)c4nn(C5CCNCC5)cc4c3)ccc2n1` > 10000 nM

Give the measured AC50 for `Fc1cc(-c2ccc3ncccc3c2)cc2cn(C3CCNCC3)nc12` > 10000 nM

Report AC50, nothing else, for this compound: `Cn1cc2cc(-c3cc(Cl)c4nn(C5CCNCC5)cc4n3)c(O)cc2n1` > 10000 nM

Supply recorded AC50 for `Cc1cn2nc(-c3cc(F)c4nn(C5CCNCC5)cc4c3)cc2c(C)n1` here. 100 to 1000 nM

Tell me its AC50 given `Fc1cc(-c2ccc3ccncc3c2)cc2cn(C3CCNCC3)nc12` as the entry. > 10000 nM

Fill in reported AC50 for this entry: `Cc1cc(-n2cc3cc(C4CCNCC4)cc(F)c3n2)cc2cn(C)nc12` 1000 to 10000 nM

For the compound `Cc1cn2nc(-c3cc4cn(C5CCNCC5)nc4c(O)n3)cc(C)c2n1` , report AC50. 100 to 1000 nM

For the compound `Cn1cc2cc(-c3cc(F)c4nn(C5CCNCC5)nc4c3)cc(F)c2n1` , report AC50. 1000 to 10000 nM

Please indicate AC50 recorded for Cc1cn2nc(-c3cc(F)c4nn(C5CCNCC5F)cc4c3)cc(C)c2n1 (stereo not drawn) 100 to 1000 nM

Consider the compound `Cc1c(O)c(-c2ccc3nn(C4CCNCC4)nc3n2)cc2cn(C)nc12` . State its measured AC50. > 10000 nM

Output measured AC50 for this item: `Cc1nc2c(C)cc(-n3cc4cc(N5CCNCC5)cc(F)c4n3)cc2o1` > 10000 nM

Given the compound `Cc1cn2nc(-c3cc(O)c4nn(C5CCNCC5)cc4c3)cc(C)c2n1` , write its reported AC50. 1000 to 10000 nM

Quick one: give measured AC50 for `Cn1cc2cc(-c3cc(F)c4nn(C5CCNCC5)cc4c3)cc(C#N)c2n1` 100 to 1000 nM

Check the records and state AC50 for `Cc1cn2nc(-c3cc(F)c4nn([C@H]5CCNC6(CC6)C5)cc4c3)cc(C)c2n1` < 100 nM
